The reader will find Ki measurements below, all made with Adenosine receptor A2b (Homo sapiens).
Sequence (P29275 whole entry): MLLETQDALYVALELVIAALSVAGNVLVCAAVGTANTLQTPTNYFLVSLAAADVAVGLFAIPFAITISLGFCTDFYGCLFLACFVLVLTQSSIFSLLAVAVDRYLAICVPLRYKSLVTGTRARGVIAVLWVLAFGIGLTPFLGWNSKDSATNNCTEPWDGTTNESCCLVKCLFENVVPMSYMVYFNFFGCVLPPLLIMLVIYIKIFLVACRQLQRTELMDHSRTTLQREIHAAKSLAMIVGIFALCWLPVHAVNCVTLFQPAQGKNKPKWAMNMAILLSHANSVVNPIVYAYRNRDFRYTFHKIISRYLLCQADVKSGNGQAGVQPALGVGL
assay_readout: Ki (nM)

Consider the worked cases shown below.
CCCn1c(=O)c2nc(-c3cnn(Cc4cccc(Cl)c4F)c3)[nH]c2n(CCC)c1=O | 58
CCCn1c(=O)c2nc(-c3cnn(Cc4ccccc4Cl)c3)[nH]c2n(CCC)c1=O | 20

a: CCCn1c(=O)c2[nH]c(-c3cnn(Cc4cccc(F)c4F)c3)nc2n(CCC)c1=O
b: CCCn1c(=O)c2nc(-c3cnn(CCCc4ccccc4)c3)[nH]c2n(CCC)c1=O
Please state the entry with greater Ki among a and b . Please respond with the label that marks your chosen entry.
a
(a: 240 nM, b: 100 nM)

P: CCCn1c(=O)c2[nH]c(-c3cn[nH]c3)nc2n(CCC)c1=O
Q: CCn1c(=O)c2nc(-c3cnn(Cc4cccc(C(F)(F)F)c4)c3)[nH]c2n(CC)c1=O
Please state the entry with greater Ki among P and Q . Please respond with the label that marks your chosen entry.
Q

1: CCCn1c(=O)c2[nH]c(-c3cnn(Cc4ccccc4)c3)nc2n(CCC)c1=O
2: CCCn1c(=O)c2[nH]c(-c3cnn(Cc4ccccc4OC)c3)nc2n(CCC)c1=O
Please state the entry with greater Ki among 1 and 2 . Please respond with the label that marks your chosen entry.
2
(2: 37 nM, 1: 11 nM)
